Assay: Pharmacokinetics in mice: total plasma and brain concentrations by LC-MS
Type: in vivo
Details: male, C57BL/6J, mouse, brain, ip, 50 mg/kg
measured-attribute: concentration at 1 h (µM)

| compound | measured-attribute | measurement-unit | readout-value |
| --- | --- | --- | --- |
| NC(=O)C(c1ccccc1)(c1ccc(F)cc1)c1ccc(F)cc1 | concentration at 1 h | µM | 43 |
